- System: HepG2
- EXPERIMENT_NOTES: Antiproliferative activity against human HepG2 cells assessed as inhibition of cell growth incubated for 24 to 72 hrs by CCK8 assay
- Type: functional, cell-based
pIC50: −log10 of the molar value.
Short version: pIC50 at least 5 is criterion met, less is criterion not met.

Reference set (4 entries):
COMPOUND_STRUCTURE: CCCCCCCCCCCC(=O)O[C@@]12C[C@@H](C)[C@]34C=C(C)[C@H](O)[C@@]3(O)[C@H](O)C(CO)=C[C@H](C4=O)[C@@H]1C2(C)C
GROUP_LABEL: criterion met
--
COMPOUND_STRUCTURE: CCCCCCCCCCCC(=O)O[C@@]12C[C@@H](C)[C@]34C=C(C)[C@H](OC(=O)c5ccc(-c6ccccc6)cc5)[C@@]3(O)[C@H](O)C(CO)=C[C@H](C4=O)[C@@H]1C2(C)C
GROUP_LABEL: criterion not met
--
COMPOUND_STRUCTURE: CCCCCCCCCCCC(=O)O[C@@]12C[C@@H](C)[C@]34C=C(C)[C@H](OC(=O)c5ccc(F)cc5)[C@@]3(O)[C@H](O)C(COC(=O)c3ccc(F)cc3)=C[C@H](C4=O)[C@@H]1C2(C)C
GROUP_LABEL: criterion not met
--
COMPOUND_STRUCTURE: CCCCCCCCCCCC(=O)O[C@@]12C[C@@H](C)[C@]34C=C(C)[C@H](OC(=O)NCCCCC)[C@@]3(O)[C@H](O)C(CO)=C[C@H](C4=O)[C@@H]1C2(C)C
GROUP_LABEL: criterion met

Attention now shifts to the item below.
stdin: Evaluate CCCCCCCCCCCC(=O)O[C@@]12C[C@@H](C)[C@]34C=C(C)[C@H](OC(=O)NCCC)[C@@]3(O)[C@H](O)C(CO)=C[C@H](C4=O)[C@@H]1C2(C)C : pIC50 at minimum 5?
stdout: criterion not met

Origin of measurements: ChEMBL document CHEMBL5576041
